Test system: E-cadherin expression in H520 cells
Assay: E-cadherin expression, in-cell Western (ICW), H520 cells
Type: cell-based
Conditions: Homo sapiens, NCI-H520; change in expression level of E-cadherin in response to 10 μM compound, 24 hours, H520 cells
valueKind: fold induction at 10 µM
Number only, please.

1. O=C(NCCNC(=O)c1cc(-c2ccccc2)on1)c1ccncc1 [Compound 4]    2.87
2. O=C(Cc1ccccc1O)NCCNC(=O)c1cc(-c2ccccc2)[nH]n1 [Compound 123]    1.24

Would you kindly look at the next entry?
Query :: Find fold induction at 10 µM for O=C(NCCNC(=O)c1cc(Br)ccc1O)c1cc(-c2ccccc2)on1 [Compound 2] on E-cadherin expression in H520 cells and write it down.
Result :: 1.14
